targetOrSystem: UniProtKB P30530
Sequence (P30530 whole entry, looked up): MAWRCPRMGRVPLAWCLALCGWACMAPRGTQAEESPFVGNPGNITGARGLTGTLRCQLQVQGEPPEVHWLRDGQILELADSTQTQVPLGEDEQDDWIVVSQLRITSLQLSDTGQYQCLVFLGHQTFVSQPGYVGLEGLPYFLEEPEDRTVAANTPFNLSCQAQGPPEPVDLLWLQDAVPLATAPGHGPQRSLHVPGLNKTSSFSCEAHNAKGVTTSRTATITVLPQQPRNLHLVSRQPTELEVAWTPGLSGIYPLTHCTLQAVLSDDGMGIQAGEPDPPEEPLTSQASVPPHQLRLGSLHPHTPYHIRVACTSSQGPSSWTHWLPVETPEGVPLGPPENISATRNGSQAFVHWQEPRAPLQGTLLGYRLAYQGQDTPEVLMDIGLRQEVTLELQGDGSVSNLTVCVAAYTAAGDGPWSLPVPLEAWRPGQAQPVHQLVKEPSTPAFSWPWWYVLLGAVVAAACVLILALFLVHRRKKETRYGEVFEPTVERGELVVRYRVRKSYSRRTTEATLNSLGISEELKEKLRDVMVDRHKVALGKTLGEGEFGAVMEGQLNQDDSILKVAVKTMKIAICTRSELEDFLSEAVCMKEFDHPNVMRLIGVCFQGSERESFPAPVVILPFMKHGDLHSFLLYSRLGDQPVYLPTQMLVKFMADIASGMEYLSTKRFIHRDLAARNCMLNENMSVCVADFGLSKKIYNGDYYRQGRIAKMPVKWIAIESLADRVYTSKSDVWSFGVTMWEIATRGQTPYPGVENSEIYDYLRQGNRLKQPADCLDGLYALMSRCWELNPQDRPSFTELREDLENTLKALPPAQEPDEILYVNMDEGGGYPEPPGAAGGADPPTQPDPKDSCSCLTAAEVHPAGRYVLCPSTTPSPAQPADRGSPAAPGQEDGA
methodDescription: radiometric filter-binding kinase assay, Kinase HotSpot
details: compound 0.5 µM; ATP 10 µM
Please respond with reported residual activity for every item in the list.

Problem: Which residual activity value is on record for `CCn1cnc2c(Nc3cccc(Cl)c3)nc(N[C@@H]3CCCC[C@@H]3N)nc21` ?
Result: 98.7%

Problem: // lookup residual activity for `CCN(CC)CCCCN1c2ccccc2Oc2ccc(Cl)cc21`
Result: 95.2%

Problem: # input compound: `COc1ccc(OC)c2c(=S)c3ccccc3[nH]c12` ; wanted: its residual activity
Result: 103%

Problem: Given `CN(C)C[C@H]1CCn2c(c(C3=C(c4cn(C)c5ccccc45)C(=O)NC3=O)c3ccccc32)C1` , state its recorded residual activity.
Result: 99.3%

Problem: Dear colleague, I am looking for the recorded residual activity of the following compound: `CN([C@@H](Cc1ccc(OS(=O)(=O)c2cccc3cnccc23)cc1)C(=O)N1CCN(c2ccccc2)CC1)S(=O)(=O)c1cccc2cnccc12`
Result: 103%

Problem: // lookup residual activity for `CC(C)[C@H](CO)Nc1nc(Nc2cc(N)cc(Cl)c2)c2ncn(C(C)C)c2n1`
Result: 93.1%

Problem: I'd like to know its residual activity. The compound in question is `Cn1cnc2cc3c(Nc4cccc(Br)c4)ncnc3cc21`
Result: 101%

Problem: // returns reported residual activity for input `Oc1ccc(Nc2nc(-c3ccc(Cl)cc3)cs2)cc1`
Result: 98.5%

Problem: Param item = `COc1cc2ncc(-c3ccccc3)nc2cc1OC` ; retrieve measured residual activity.
Result: 95.2%

Problem: # lookup: residual activity of O=C1Nc2ccccc2/C1=C1/Nc2ccccc2/C1=N\OCCC(O)CO (configuration not stated)
Result: 42.7%

Problem: Given `O=C1Cc2c([nH]c3ccc(Br)cc23)-c2ccccc2N1` , state its recorded residual activity.
Result: 101%

Problem: Returns the measured residual activity for the input compound. Input: `CC(C)c1nn(-c2c(Cl)cccc2Cl)c2nc(Cc3ccc(OCCO)cc3)nc(O)c12`
Result: 98%

Problem: Need residual activity, item `Cn1sc(=O)n(Cc2ccccc2)c1=O`
Result: 96.9%

Problem: Please look up its residual activity: `O=C(Nc1cccc(Nc2cc(Nc3cccc(C(F)(F)F)c3)ncn2)c1)C1CC1`
Result: 98.7%

Problem: Given `O=C(O)/C=C/c1cc(Br)c(Br)c(Br)c1Br` , state its recorded residual activity.
Result: 90.9%

Problem: Return reported residual activity; argument: `Nc1nccc(-c2c(-c3ccc(F)cc3)ncn2C2CCNCC2)n1`
Result: 102%

Problem: Please give the measured residual activity for this compound: `Cn1nc2c3c(cccc31)C(=O)c1ccccc1-2`
Result: 104%

Problem: What value of residual activity has been recorded for this entry: `O=C1NC(=O)C(c2cn(CCCO)c3ncccc23)=C1c1cnccn1`
Result: 104%

Problem: If you can, please state the reported residual activity value of `O=C1NC(=O)C(c2c[nH]c3ccccc23)=C1c1c[nH]c2ccccc12` .
Result: 103%

Problem: Look up residual activity: `O=C1NC(=O)/C(=C\c2ccc3nccnc3c2)S1`
Result: 112%

Problem: Given the compound `COc1ccc(CNC(=O)Nc2ncc([N+](=O)[O-])s2)cc1` , what is its reported residual activity?
Result: 92%

Problem: Using the record for `O=C(CCCc1ccc(-c2ccccc2F)cc1)Nc1ccc(O)cc1` , report its residual activity.
Result: 91.4%

The measured values listed here are drawn from the kinase profiling compilation of Christmann-Franck et al. (2016).
